Data provenance is the supplement of paper PMC5579334.

Assign drug sensitivity score to each entry below.
Tested on: HS-PSS
Experiment: drug sensitivity score (DSS, CellTox-Green cytotoxicity, 72 h) (DSS (dimensionless)); higher = more cytotoxic; extreme values may be limits of the assay
Numbers only.

• Cc1nc(C(=O)NCC(=O)O)c(O)c2ccc(Oc3ccccc3)cc12 [FG-4592] (max concentration tested 10000 nM) = 0
• O=C(O)CC[C@H]1CC[C@@](c2cc(F)ccc2F)(S(=O)(=O)c2ccc(Cl)cc2)CC1 [MK-0752] (max concentration tested 1000 nM) = 0

Field request: drug sensitivity score | item: CCS(=O)(=O)N1CCN(c2ccc(Nc3ncc(C(N)=O)c(NC4CC4)n3)cc2)CC1 [Cerdulatinib] (max concentration tested 10000 nM)
0

---

Assign % inhibition to each entry below.
Test system: HSC1 (primary human Schwann cells)
Experiment: % inhibition of CellTiter-Glo viability at highest tested concentration (72 h), relative to DMSO and benzethonium chloride controls; higher = more inhibition
Answers are plain numbers, in %.

• CC(C)n1cnc2c(NCCc3ccc(O)cc3)nc(-c3csc4ccccc34)nc21 [StemRegenin 1] (max concentration tested 10000 nM) = 42

For each of the compounds below, note its % inhibition.
1. CC1(C)CNc2cc(NC(=O)c3cccnc3NCc3ccncc3)ccc21 [Motesanib] (max concentration tested 10000 nM)
2. CCNC(=O)c1noc(-c2cc(C(C)C)c(O)cc2O)c1-c1ccc(CN2CCOCC2)cc1 [NVP-AUY922] (max concentration tested 1000 nM)
3. S=P(N1CC1)(N1CC1)N1CC1 [Thio-TEPA] (max concentration tested 50000 nM)

1. 9.4
2. 98.2
3. 2.2

---

Tested on: YST-1
Experiment: drug sensitivity score (DSS, CellTiter-Glo viability, 72 h) (DSS (dimensionless)); higher = more sensitive; extreme values may be limits of the assay
Respond with t for drug sensitivity score values of 7 and above, f for values below.

Is reported drug sensitivity score greater than or equal to 7 here: CS(=O)(=O)c1ccc(C(=O)Nc2ccc(Cl)c(-c3ccccn3)c2)c(Cl)c1 [Vismodegib] (max concentration tested 10000 nM)
f

---

Test system: HSC2
Assay: relative IC50 (inflection point of fitted dose-response curve, CellTiter-Glo viability, 72 h; top asymptote may be below 50% inhibition); higher = less potent
measure: relative IC50

* CC[C@]1(O)C[C@H]2CN(CCc3c([nH]c4ccccc34)[C@@](C(=O)OC)(c3cc4c(cc3OC)N(C=O)[C@H]3[C@@](O)(C(=O)OC)[C@H](OC(C)=O)[C@]5(CC)C=CCN6CC[C@]43[C@@H]65)C2)C1 | 11 nM
* CC[C@H](CO)Nc1nc(NCc2ccccc2)c2ncn(C(C)C)c2n1 | 3990 nM

For each of the compounds below, note its relative IC50.
1. CNC(=O)c1ccc(N2C(=S)N(c3ccc(C#N)c(C(F)(F)F)c3)C(=O)C23CCC3)cc1F
2. CN(C)CCN1C(=O)c2cccc3cc(N)cc(c23)C1=O [Amonafide]
3. CCCCCOC(=O)Nc1nc(=O)n([C@@H]2O[C@H](C)[C@@H](O)[C@H]2O)cc1F
4. CC(=O)O[C@@]12CO[C@@H]1C[C@H](O)[C@@]1(C)C(=O)[C@H](O)C3=C(C)[C@@H](OC(=O)[C@H](O)[C@@H](NC(=O)OC(C)(C)C)c4ccccc4)C[C@@](O)([C@@H](OC(=O)c4ccccc4)[C@H]21)C3(C)C

> 10000 nM
1860 nM
> 10000 nM
4.15 nM

---

Tested on: YST-1
Assay: drug sensitivity score (DSS, CellTiter-Glo viability, 72 h) (DSS (dimensionless)); higher = more sensitive; extreme values may be limits of the assay
Assign drug sensitivity score to each entry below.
Answers are plain numbers.

- CS(=O)(=O)N1CCc2c(-c3cnc(N)nc3)nc(N3CCOCC3)nc21 (max concentration tested 10000 nM): 14.4
- N#CC(c1ccnc(OCc2ccc(CN3CCOCC3)cc2)n1)c1nc2ccccc2s1 (stereo unspecified) [Bentamapimod] (max concentration tested 10000 nM): 2.11
- O=C1c2ccccc2-c2n[nH]c3cccc1c23 (max concentration tested 100000 nM): 2.42
- Nc1ccccc1NC(=O)c1ccc(CNc2nccc(-c3cccnc3)n2)cc1 [Mocetinostat] (max concentration tested 10000 nM): 15

For each of the compounds below, note its drug sensitivity score.
1. CN(C)C/C=C/C(=O)Nc1cc2c(Nc3ccc(F)c(Cl)c3)ncnc2cc1O[C@H]1CCOC1 [Afatinib] (max concentration tested 1000 nM)
2. COc1cc(OC2CCN(C)CC2)ccc1Nc1ncc2c(n1)n(C1CCCC1)c(=O)n2C [AZ 3146] (max concentration tested 10000 nM)

1: 0; 2: 6.64
